A collection of molecules and their measured Ki
# studyTarget: human V1a receptor (Homo sapiens, UniProt P37288)
# Construct: expressed in transfected cells; host or cells: HEK293 cells, transiently transfected; membrane preparation
# Sequence (P37288 whole entry): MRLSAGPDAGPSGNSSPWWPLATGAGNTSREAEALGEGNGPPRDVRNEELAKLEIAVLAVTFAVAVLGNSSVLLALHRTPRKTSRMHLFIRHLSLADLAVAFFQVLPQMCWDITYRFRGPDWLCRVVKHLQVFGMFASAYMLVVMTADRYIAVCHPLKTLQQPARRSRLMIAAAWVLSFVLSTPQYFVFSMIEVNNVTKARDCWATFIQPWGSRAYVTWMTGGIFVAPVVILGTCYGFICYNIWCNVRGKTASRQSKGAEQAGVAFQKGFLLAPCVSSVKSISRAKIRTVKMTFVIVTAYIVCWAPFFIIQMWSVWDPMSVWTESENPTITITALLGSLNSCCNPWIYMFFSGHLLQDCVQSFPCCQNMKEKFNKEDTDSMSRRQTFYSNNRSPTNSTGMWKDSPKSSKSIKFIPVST
# protocolText: human V1a receptor binding studies (SPA, 3H-Vasopressin, membranes of transfected HEK293 cells)
# measurementConditions: displacement of 3H-Vasopressin, HEK293 cell membranes, 1 h at room temperature; Ki by Cheng-Prussoff equation; read-out: pKi (hV1a) (converted)
Counter-ions that a name gives are not always drawn.
# unit: nM | format: bare number

Example molecules with recorded Ki:
CC(C)(C)OC(=O)N1Cc2cc(Cl)ccc2-n2c(nnc2[C@H]2CC[C@H](Oc3ccccc3)CC2)C1	3.24
CS(=O)(=O)N1Cc2cc(Cl)ccc2-n2c(nnc2[C@H]2CC[C@H](Oc3ccccc3)CC2)C1	1.7
Clc1ccc(O[C@H]2CC[C@H](c3nnc4n3-c3ccc(Cl)cc3CNC4)CC2)nc1 [Example 74, hydrochloride]	11.2
Cc1ccccc1O[C@H]1CC[C@H](c2nnc3n2-c2ccc(Cl)cc2CN(C(=O)OC(C)(C)C)C3)CC1	7.08
CC(C)(C)OC(=O)N1Cc2cc(F)ccc2-n2c(nnc2[C@H]2CC[C@H](Oc3ccccc3)CC2)C1	5.5
CN1Cc2cc(Cl)ccc2-n2c(nnc2[C@H]2CC[C@H](Oc3ccccc3F)CC2)C1	3.63
CC(C)(C)OC(=O)N1Cc2cc(Cl)ccc2-n2c(nnc2[C@H]2CC[C@H](Oc3ccncn3)CC2)C1	3.47
CC(C)(C)OC(=O)N1Cc2cc(Cl)ccc2-n2c(nnc2[C@H]2CC[C@H](Oc3ccccc3F)CC2)C1	6.17

Now examine the next entry.
Input: Please indicate Ki recorded for CC(C)(C)OC(=O)N1Cc2cc(Cl)ccc2-n2c(nnc2[C@H]2CC[C@H](Oc3ncccn3)CC2)C1
Output: 2.57
